# Test System: GST-tagged recombinant full-length human Pim-2 (Homo sapiens)
# Construct: GST-tagged recombinant full-length human Pim-2; GST
# Sequence (Q9P1W9 whole entry): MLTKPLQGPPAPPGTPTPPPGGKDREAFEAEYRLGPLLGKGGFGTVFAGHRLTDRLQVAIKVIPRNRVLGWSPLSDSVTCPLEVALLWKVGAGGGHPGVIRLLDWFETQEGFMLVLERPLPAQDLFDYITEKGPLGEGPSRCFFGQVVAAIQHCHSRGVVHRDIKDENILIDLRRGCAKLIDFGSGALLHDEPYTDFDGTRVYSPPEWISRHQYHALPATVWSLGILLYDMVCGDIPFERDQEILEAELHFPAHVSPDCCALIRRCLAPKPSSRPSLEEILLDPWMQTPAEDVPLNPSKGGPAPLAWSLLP
# Procedure Text: PIM-2 Assay (as Example A)
# Measurement Parameters: averaged IC50; 4 μM ATP, 1.0 μM PIM2tide, 1.5 nM Pim-2
pIC50: −log10 of the molar value. Counter-ions that a name gives are not always drawn.
Assay Endpoint: pIC50

>>> value("CC(C)(C)c1cccc2ccc(-c3nnc4ccc([C@@H](N5C[C@@H]6C[C@H]5CN6)C(F)(F)F)cn34)nc12 [Example 62]")
8.54
>>> value("COc1cccc2ccc(-c3nnc4ccc(C(N5CC[C@H](N)C5)C(F)(F)F)cn34)nc12 (stereo partly drawn) [Example 1, dihydrochloride]")
6.79
>>> value("CCOc1cc2nc(-c3nnc4ccc([C@H](N5CCC(N)(CC)C5)C(F)(F)F)cn34)ccc2cc1F (single isomer, unassigned; diastereomer 1) [Example 251, dihydrochloride]")
6.99
>>> value("Cc1c(-c2cc3nc(-c4nnc5ccc([C@@H](N6CC[C@H](N)C6)C(F)(F)F)cn45)ccc3cc2F)cnn1C [Example 206, dihydrochloride]")
7.26
>>> value("N[C@H]1CCN([C@@H](c2ccc3nnc(-c4ccc5cccc(C6CC6)c5n4)n3c2)C(F)(F)F)C1 [Example 51, dihydrochloride]")
7.96
>>> value("N[C@H]1CCN([C@H](c2ccc3nnc(-c4ccc5ccc(F)c(C6CC6)c5n4)n3c2)C(F)(F)F)C1 [Example 60, dihydrochloride]")
7.11
>>> value("N[C@H]1CCN([C@H](c2ccc3nnc(-c4ccc5cc(F)c(C6CC6)cc5n4)n3c2)C(F)(F)F)C1 [Example 176, dihydrochloride]")
7.04
>>> value("N[C@H]1CCN([C@H](c2ccc3nnc(-c4ccc5cccc(OC(F)(F)F)c5n4)n3c2)C(F)(F)F)C1 [Example 40, dihydrochloride]")
7.11
>>> value("CC(C)NC(=O)c1ccc2ccc(-c3nnc4ccc([C@@H](N5CC[C@H](N)C5)C(F)(F)F)cn34)nc2c1 [Example 34, dihydrochloride]")
7.39
>>> value("COc1cc2nc(-c3nnc4ccc([C@H](N5CC[C@H](N)C5)C(F)(F)F)cn34)ccc2cc1F [Example 136, hydrochloride]")
7.02
>>> value("N[C@@H]1CCN(C(c2ccc3nnc(-c4ccc5cccc(OCC6CC6)c5n4)n3c2)C(F)(F)F)C1 (stereo partly drawn) [Example 16, dihydrochloride]")
6.85
>>> value("N[C@H]1CCN([C@H](c2ccc3nnc(-c4ccc5cc(F)cc(OC(F)F)c5n4)n3c2)C(F)(F)F)C1 [Example 228, dihydrochloride]")
6.04
>>> value("CCOc1cc2nc(-c3nnc4ccc([C@H](N5CCC(N)(CC)C5)C(F)(F)F)cn34)ccc2cc1F (single isomer, unassigned; diastereomer 2) [Example 245, dihydrochloride]")
6.90
>>> value("COCC(COC)Oc1cccc2ccc(-c3nnc4ccc([C@@H](N5CC[C@H](N)C5)C(F)(F)F)cn34)nc12 [Example 271, dihydrochloride]")
6.19
>>> value("N[C@H]1CCN([C@H](c2ccc3nnc(-c4ccc5ccc(C6CC6)cc5n4)n3c2)C(F)(F)F)C1 (single isomer, unassigned) [Example 13]")
6.92
>>> value("N[C@@H]1CCN([C@@H](c2ccc3nnc(-c4ccc5cccc(C6CC6)c5n4)n3c2)C(F)(F)F)C1 [Example 56]")
7.80
>>> value("Cc1oc(=O)oc1COC(=O)N[C@H]1CCN([C@H](c2ccc3nnc(-c4ccc5cc(F)c(OCCO)cc5n4)n3c2)C(F)(F)F)C1 [Example 321]")
5.74
